Parameter: kon. Scope: all listed entries.
Target: T1, CTLA4-his (UniProt P16410 36-161, limits assumed)
T1 construct: construct not described; also called Ag CTLA4-his; Antigen CTLA4-his; not shown: his tag
T1 sequence (looked up): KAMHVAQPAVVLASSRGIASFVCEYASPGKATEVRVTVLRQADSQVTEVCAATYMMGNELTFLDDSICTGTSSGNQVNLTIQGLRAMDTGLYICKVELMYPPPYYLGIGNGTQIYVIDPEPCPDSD
Assay: SPR Biacore T200, antibody from supernatant captured by anti-human Fc, CTLA4-his injected
Parameter: kon (M⁻¹ s⁻¹)

1. Humanized Ab 7 (VH3 + VL1) (antibody, human IgG1, kappa, V domains shown, Humanized IgG1 derived from MAb A4, full length, HEK293) VH: QVQLVQSGAEVKKPGASVKVSCKASGYKFTDHFINWVKQAPGQGLEWIGDINPNNGGTNSNQKFEGRVTLTVDTSISTAYMELSRLRSDDTAVYYCARLRREYFYAMDYWGQGTLVTVSS VL: DIVMTQSPLSLPVTPGEPASISCRSSKSLLHSNGITYLYWYLQKPGQSPQLLIYQMSNLASGVPDRFSGSGSGTDFTLKISRVEAEDVGVYYCAQNLELPLTFGGGTKVEIKR : 454000
2. Humanized Ab 14 (VH6 + VL3) (antibody, human IgG1, kappa, V domains shown, Humanized IgG1 derived from MAb A4) VH: QVQLVQSGAEVKKPGASVKVSCKASGYKFTDHFINWVKQAPGQGLEWIGDINPNNGGTNSNQKFEGKATLTVDKSISTAYMELRRLRSDDTAVYYCARLRREYFYAMDYWGQGTLVTVSS VL: DIVMTQSPLSLPVTPGEPASISCRSSKSLLHSNGITYLYWYLQKPGQSPQLLIYQMSNLASGVPDRFSSSGSGTDFTLKISRVEAEDVGVYYCAQNLELPLTFGGGTKLEIKR : 221000

Value source: patent US20200055937A1
